For each record, write down the corresponding Mean amount per ml acceptor liquid.
- assay-overview: Skin PAMPA (Parallel Artificial Membrane Permeability Assay) permeation from a cosmetic formulation
- Type: in vitro ADME
- run-parameters: 0.05% in formulation, no penetration enhancer; 120 min
Give bare numbers, in μg per ml.

Examples with their reported Mean amount per ml acceptor liquid follow.
INSERT INTO measurements (compound, measured_attribute, unit_annotation, value_measured) VALUES
  ('COc1cc(C=CC(=O)Nc2ccc(O)cc2C(=O)O)ccc1O', 'Mean amount per ml acceptor liquid', 'μg per ml', 0.063),
  ('O=C(C=Cc1ccc(O)c(O)c1)Nc1ccc(O)cc1C(=O)O', 'Mean amount per ml acceptor liquid', 'μg per ml', 0.532),
  ('O=C(CCc1ccc(O)cc1)Nc1ccccc1C(=O)O [Dihydroavenanthramide D, reference compound]', 'Mean amount per ml acceptor liquid', 'μg per ml', 0.288),
  ('O=C(C=Cc1ccc(O)cc1)Nc1ccc(O)cc1C(=O)O', 'Mean amount per ml acceptor liquid', 'μg per ml', 0.188);

Now for the compound whose Mean amount per ml acceptor liquid we want.
Lab book: Mean amount per ml acceptor liquid of "O=C(/C=C/C=C/c1ccc(O)cc1)Nc1ccc(O)cc1C(=O)O" noted as 0.000
